Entry source: the supplement of paper PMC6555819

Tested on: LXRb:RXRa (NR concentration 270 nM, RXRa partner concentration 90 nM)
ASSAY_EXPLANATION: PBM binding z-score (relative to random genomic background probes); higher = stronger binding; sequences stand for … in GC…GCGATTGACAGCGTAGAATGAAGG
ENDPOINT: PBM binding z-score

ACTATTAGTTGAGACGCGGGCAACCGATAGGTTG = -0.488
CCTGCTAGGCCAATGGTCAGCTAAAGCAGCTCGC = -0.914
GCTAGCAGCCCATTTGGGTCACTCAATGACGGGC = -0.285
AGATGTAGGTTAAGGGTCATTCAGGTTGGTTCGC = 4.61
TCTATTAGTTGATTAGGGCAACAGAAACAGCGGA = 0.646
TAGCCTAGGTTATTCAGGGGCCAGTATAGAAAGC = 1.24
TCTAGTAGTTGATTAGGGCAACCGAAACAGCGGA = 0.0544
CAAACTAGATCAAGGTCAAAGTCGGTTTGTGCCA = 3.65

====

Test system: THRa:RXRa (NR concentration 90 nM, RXRa partner concentration 90 nM)
ASSAY_EXPLANATION: PBM binding z-score (relative to random genomic background probes); higher = stronger binding; sequences stand for … in GC…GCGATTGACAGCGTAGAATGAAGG
Criterion: PBM binding z-score meeting or surpassing 3. Met: label 1. Not met: label 0.

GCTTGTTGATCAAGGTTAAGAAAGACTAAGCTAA = label 0
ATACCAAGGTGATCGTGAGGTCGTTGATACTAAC = label 1
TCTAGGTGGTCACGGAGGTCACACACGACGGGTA = label 1
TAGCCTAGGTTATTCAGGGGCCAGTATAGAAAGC = label 0
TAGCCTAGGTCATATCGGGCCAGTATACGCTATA = label 1
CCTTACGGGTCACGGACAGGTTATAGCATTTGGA = label 1
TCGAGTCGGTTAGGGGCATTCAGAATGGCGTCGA = label 0
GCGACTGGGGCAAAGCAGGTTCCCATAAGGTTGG = label 0
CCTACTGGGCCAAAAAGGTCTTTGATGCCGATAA = label 0

====

Test system: PPARg:RXRa 270nM:90nM, anti-RXR (NR concentration 270 nM, RXRa partner concentration 90 nM)
ASSAY_EXPLANATION: PBM binding z-score (relative to random genomic background probes); higher = stronger binding; sequences stand for … in GC…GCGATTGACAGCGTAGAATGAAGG
ENDPOINT: PBM binding z-score

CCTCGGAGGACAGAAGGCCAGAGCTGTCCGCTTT = -1.08
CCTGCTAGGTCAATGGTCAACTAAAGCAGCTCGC = 5.74
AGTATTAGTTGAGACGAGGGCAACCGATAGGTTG = 0.313
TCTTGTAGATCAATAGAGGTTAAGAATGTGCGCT = 1.56
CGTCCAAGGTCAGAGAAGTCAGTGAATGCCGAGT = 2.54
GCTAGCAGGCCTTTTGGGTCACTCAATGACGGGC = 0.00506
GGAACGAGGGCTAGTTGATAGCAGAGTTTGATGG = -0.227
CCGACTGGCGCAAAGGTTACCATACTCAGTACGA = 6.74
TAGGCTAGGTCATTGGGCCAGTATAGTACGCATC = 3.76
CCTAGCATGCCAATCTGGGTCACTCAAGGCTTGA = 2.25

====

System: PPARg:RXRa 30nM:10nM, anti-RXR (NR concentration 30 nM, RXRa partner concentration 10 nM)
ASSAY_EXPLANATION: PBM binding z-score (relative to random genomic background probes); higher = stronger binding; sequences stand for … in GC…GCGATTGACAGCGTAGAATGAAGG
Recorded PBM binding z-score by entry
ENDPOINT: PBM binding z-score

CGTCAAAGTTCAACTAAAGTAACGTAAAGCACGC = 2.2
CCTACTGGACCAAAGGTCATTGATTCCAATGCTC = 10.5
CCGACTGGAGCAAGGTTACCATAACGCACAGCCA = 0.181
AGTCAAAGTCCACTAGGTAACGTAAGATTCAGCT = 0.0579
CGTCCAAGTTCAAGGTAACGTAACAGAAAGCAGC = 0.382
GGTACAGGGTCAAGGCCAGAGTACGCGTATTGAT = 2.38
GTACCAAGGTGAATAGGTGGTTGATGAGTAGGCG = 0.0319
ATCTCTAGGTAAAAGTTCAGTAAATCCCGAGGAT = 6.62
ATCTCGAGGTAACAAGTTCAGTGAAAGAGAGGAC = -0.0837
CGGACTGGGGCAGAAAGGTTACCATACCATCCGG = 1.89
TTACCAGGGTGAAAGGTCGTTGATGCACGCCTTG = 6.89
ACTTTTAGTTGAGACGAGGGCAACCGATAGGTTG = 0.289
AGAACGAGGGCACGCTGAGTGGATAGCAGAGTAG = 0.26
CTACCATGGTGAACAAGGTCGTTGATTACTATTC = -0.000193
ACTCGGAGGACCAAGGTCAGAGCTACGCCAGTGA = 0.277
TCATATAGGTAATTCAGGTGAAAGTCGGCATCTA = 4.33
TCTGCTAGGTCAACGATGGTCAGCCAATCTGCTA = 1.79
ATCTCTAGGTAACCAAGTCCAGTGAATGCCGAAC = 0.172
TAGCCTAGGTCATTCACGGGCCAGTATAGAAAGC = 0.448
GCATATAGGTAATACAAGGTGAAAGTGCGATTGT = 1.04
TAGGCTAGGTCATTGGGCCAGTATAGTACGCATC = 0.966
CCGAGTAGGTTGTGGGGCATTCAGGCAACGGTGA = -0.549
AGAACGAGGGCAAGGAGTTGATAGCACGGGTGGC = -0.111
